- test.protocol: bacterial viability inhibition counter-screen, confirmation, counter-screen for AddAB inhibitor project, absorbance (AID 488956)
- test.parameters: absorbance (AddAB counterscreen), at 11.9 µM
This is one part of the list. Calls of active or inactive are those of the source. No stated cut-off is given here; in the data, active means inhibition above about 25%; inactive means the rest.
Outcomes: y (active), n (inactive)

compound	label
CC(C)(C)NC(=O)COC(=O)c1cc(Cl)ccc1[N+](=O)[O-]	n
O=C(c1[nH]ncc1-c1ccc(Cl)cc1)C1CO1 (stereo unspecified)	y
O=[N+]([O-])c1ccc(N=Cc2c(O)ccc3ccccc23)cc1	n
CC1CCCN(C(=O)c2ccc3c(c2)C(=O)N(CCC2=CCCCC2)C3=O)C1 (stereo unspecified)	n
C=CC1=C(C(=O)O)N2C(=O)[C@@H](NC(=O)/C(=N\OCC(=O)O)c3csc(N)n3)[C@H]2SC1	y
CCN1/C(=C\c2ccc3ccccc3[n+]2CC)Sc2cc(C)ccc21	n
Oc1cccc(/C=N/Nc2ccc(Cl)nn2)c1O	n
COc1c(N2CCN(C(=S)Nc3ccccc3F)C(C)C2)c(F)cc2c(=O)c(C(=O)O)cn(C3CC3)c12 (stereo unspecified)	y
Cc1cccc(NC(=O)c2ccc([N+](=O)[O-])o2)c1	y
CSC(=S)N/N=C/c1c[nH]c2ccccc12	y
Cc1cn(C2C=CC(CO)O2)c(=O)[nH]c1=O (stereo unspecified)	y

* * *

- measurement.target: Nuclear receptor subfamily 5 group A member 2 (Homo sapiens) (UniProt O00482)
- Sequence (O00482 whole entry, looked up): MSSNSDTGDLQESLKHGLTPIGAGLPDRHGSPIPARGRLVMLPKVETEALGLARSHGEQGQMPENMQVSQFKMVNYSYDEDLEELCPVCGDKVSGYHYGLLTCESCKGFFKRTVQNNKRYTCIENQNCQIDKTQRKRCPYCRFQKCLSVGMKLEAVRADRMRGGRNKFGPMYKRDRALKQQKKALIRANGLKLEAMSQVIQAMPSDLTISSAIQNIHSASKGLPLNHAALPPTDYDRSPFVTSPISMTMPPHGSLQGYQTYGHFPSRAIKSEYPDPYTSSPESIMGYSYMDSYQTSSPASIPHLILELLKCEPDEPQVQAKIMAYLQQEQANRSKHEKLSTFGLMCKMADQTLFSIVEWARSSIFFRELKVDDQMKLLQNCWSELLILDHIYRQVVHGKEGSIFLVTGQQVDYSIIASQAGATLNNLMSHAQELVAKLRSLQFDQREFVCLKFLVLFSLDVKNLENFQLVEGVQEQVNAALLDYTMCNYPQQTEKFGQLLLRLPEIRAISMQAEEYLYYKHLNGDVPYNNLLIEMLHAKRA
- test.protocol: LRH-1 (NR5A2) inverse agonists, retest, confirmation, cell-based, luminescence (AID 651613);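 further: HEK293T cells co-transfected with LRH-1 and StAR promoter luciferase reporter; 0% = vehicle wells and 100% = parental cells lacking receptor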
- test.parameters: cell-based LRH-1 luciferase reporter, inverse agonism; at 3.6 µM
Active and inactive are the calls of the source. Cut-off read from the data, not from the text of the source: active = inhibition above about 42%; inactive = the rest.
Outcomes: active, inactive

compound.string	label
CCc1c(O)nc(SCC(=O)Nc2ccc(OC)cc2)n(C2CCCCC2)c1=O	active
CCc1cc(=O)[nH]c(SCC(=O)Nc2ccc3c(c2)OCCO3)n1	inactive
Oc1cccc2cc(Nc3ccccc3)cnc12	active
O=C(NC(Nc1nc2ccc([N+](=O)[O-])cc2s1)(C(F)(F)F)C(F)(F)F)c1cccnc1	active
CN(C)CCNC(=O)c1ccc(Cl)c2cc3ccccc3nc12	active
Cc1cc(C)c2c(NC(=O)CCl)nn(C)c2n1	active

* * *

- System: HIV-1 integrase / human LEDGF/p75 complex
- test.protocol: inhibitors of HIV-1 IN-LEDGF/p75 DNA integration, confirmation, biochemical, TR-FRET (AID 1053136)
- test.parameters: TR-FRET LEDGF/p75-dependent HIV-1 integration, at 3.7 µM, stronger effect = higher value
The list shows a part of the results.
Where inhibition equals or exceeds 10%, the correct label is yes (1); where it does not, the label is no (0).

molecule	label
Cc1ccc(C(=O)N2CCCc3ccccc32)c(Cl)c1	no (0)
Cc1cc(=O)n2[nH]c(-c3sccc3-n3c(C)ccc3C)cc2n1	no (0)
CN(C)c1ccc(N/C=C/C(=O)C(F)(F)F)cc1	no (0)
CCCCNC(=O)OC1CC2CC1[C@H]1CCCCN1C2=O (some centres not stated)	no (0)
Oc1c(CN2CCOCC2)ccc(CN2CCOCC2)c1O	yes (1)
Cc1ccc(C(=O)NC(=S)Nc2ccc3[nH]c(=O)[nH]c3c2)cc1C	yes (1)
O=C(NNC(=O)c1ccccc1O)c1ccccc1O	yes (1)
CN(C)/C=C/C(=O)c1cnc2sccn2c1=O	no (0)
CN(Cc1ccc(F)cc1)C(=O)CN1C(=O)c2ccccc2S1(=O)=O	no (0)
O=C(O)c1ccc(NN=CC2=C(N3CCOCC3)/C(=C/c3ccccc3)CC2)cc1	yes (1)
Cc1ccc(-c2cnc(NC(=O)CCC(=O)N(C)Cc3ccccc3)n2C)cc1	no (0)
C[C@H]([C@@H](O)[C@@H](O)[C@@H](C)C(C)(C)C)[C@H]1CC[C@H]2C3CC[C@H]4C[C@H](OS(=O)(=O)O)[C@@H](OS(=O)(=O)O)C[C@]4(C)[C@H]3CC[C@]12C (some centres not stated)	yes (1)
CCn1nc(C)c(CN2CCN(Cc3ccc(OC)c(C)c3C)C(CCO)C2)c1C (configuration not stated)	no (0)
CCOC(=O)c1ccc(NC(=O)CSc2ncccn2)cc1	no (0)
Cc1ccc(C(=O)N/C(=C/c2cccs2)C(=O)N2CCCCC2)cc1	no (0)
CC(C)Cn1c(N)c(C(=O)NCc2cccs2)c2nc3ccccc3nc21	no (0)
CCOC(=O)/C(C#N)=C\c1c(C)cc(C)c(COC(C)=O)c1C	no (0)
NC(=O)c1ccccc1NC(=O)c1ccccc1F	no (0)
Cc1ccc(S(=O)(=O)/N=C2\C=C(NS(=O)(=O)c3ccc(C)cc3)C(=O)c3ccccc32)cc1	yes (1)
CCN(CC)CCOc1ccc2c(c1)C(=NNC(=O)c1ccccn1)c1cc(OCCN(CC)CC)ccc1-2	no (0)
CN(C)c1ccc(C(CC(=O)O)C(=O)O)cc1 (configuration not stated)	no (0)
C=CCN1C(=O)C(O)(CC(=O)c2ccccn2)c2ccccc21 (configuration not stated)	no (0)
CN(C)[C@@H]1C(=O)C(C(N)=O)=C(O)[C@@]2(O)C(=O)C3=C(O)c4c(O)ccc(Cl)c4[C@@H](O)[C@H]3C[C@@H]12	no (0)
CCc1cc2c(SCC(=O)Nc3ncc(Cl)c(C)c3Cl)ncnc2s1	no (0)
Oc1cc(O)c2c(c1)OC(c1ccc(O)c(O)c1)C(O)C2 (configuration not stated)	no (0)
COc1ccc(C(=O)/C=C/c2ccc(-c3ccccc3)cc2)cc1CSCC(=O)O	yes (1)
Cc1cc(=O)oc2c3c(cc(OCC(=O)N[C@H](C(=O)O)c4ccccc4)c12)OC(C)(C)CC3	no (0)
Cc1cc(Oc2ccc(Cl)cc2)nc(SCC(=O)c2ccccc2)n1	no (0)
Cc1cc(C(=O)N/N=C/c2ccc(O)c([N+](=O)[O-])c2)c(C)n1-c1ccc(F)cc1	yes (1)
C=CCn1c(=S)[nH]c2scc(-c3ccco3)c2c1=O	yes (1)
C=CC1=C(C(=O)O)N2C(=O)[C@@H](NC(=O)/C(=N\OCC(=O)O)c3csc(N)n3)[C@H]2SC1	yes (1)
Cc1ccc(N=C2NC(=O)/C(=C/C=C/c3ccco3)S2)cc1C	yes (1)
COc1ccc2c(c1)c(=Cc1ccc(N(C)C)cc1)c1cc(-c3ccccc3)[n+](C)n12	no (0)
COc1ccccc1C1C(C#N)=C(N)Oc2c1c(-c1ccccc1)nn2-c1ccccc1 (configuration not stated)	no (0)
COc1ccc(S(=O)(=O)N2CCCCC2)cc1C(=O)NC1CCS(=O)(=O)C1 (configuration not stated)	no (0)
NC1=NN(c2cccc(C(=O)O)c2)C(=O)C1	no (0)
CCN(CC)CCCC(C)n1c2nc(=O)[nH]c(=O)c-2nc2cc(Cl)ccc21 (configuration not stated)	yes (1)
O=C(COC(=O)CCC(=O)c1cccs1)NCc1ccco1	yes (1)
COc1ccc(C2CC(c3cccs3)=NN2C(=O)COC(=O)c2cc3ccccc3cc2O)cc1OC (configuration not stated)	no (0)
O=S(=O)(Nc1ccc(O)c2ccccc12)c1ccc(OC(F)(F)F)cc1	no (0)
NC1=CC(=O)C(=O)c2cccnc21	yes (1)

* * *

- measurement.target: Nuclear receptor coactivator 2 (Homo sapiens) (UniProt Q15596)
- Sequence (Q15596 whole entry, looked up): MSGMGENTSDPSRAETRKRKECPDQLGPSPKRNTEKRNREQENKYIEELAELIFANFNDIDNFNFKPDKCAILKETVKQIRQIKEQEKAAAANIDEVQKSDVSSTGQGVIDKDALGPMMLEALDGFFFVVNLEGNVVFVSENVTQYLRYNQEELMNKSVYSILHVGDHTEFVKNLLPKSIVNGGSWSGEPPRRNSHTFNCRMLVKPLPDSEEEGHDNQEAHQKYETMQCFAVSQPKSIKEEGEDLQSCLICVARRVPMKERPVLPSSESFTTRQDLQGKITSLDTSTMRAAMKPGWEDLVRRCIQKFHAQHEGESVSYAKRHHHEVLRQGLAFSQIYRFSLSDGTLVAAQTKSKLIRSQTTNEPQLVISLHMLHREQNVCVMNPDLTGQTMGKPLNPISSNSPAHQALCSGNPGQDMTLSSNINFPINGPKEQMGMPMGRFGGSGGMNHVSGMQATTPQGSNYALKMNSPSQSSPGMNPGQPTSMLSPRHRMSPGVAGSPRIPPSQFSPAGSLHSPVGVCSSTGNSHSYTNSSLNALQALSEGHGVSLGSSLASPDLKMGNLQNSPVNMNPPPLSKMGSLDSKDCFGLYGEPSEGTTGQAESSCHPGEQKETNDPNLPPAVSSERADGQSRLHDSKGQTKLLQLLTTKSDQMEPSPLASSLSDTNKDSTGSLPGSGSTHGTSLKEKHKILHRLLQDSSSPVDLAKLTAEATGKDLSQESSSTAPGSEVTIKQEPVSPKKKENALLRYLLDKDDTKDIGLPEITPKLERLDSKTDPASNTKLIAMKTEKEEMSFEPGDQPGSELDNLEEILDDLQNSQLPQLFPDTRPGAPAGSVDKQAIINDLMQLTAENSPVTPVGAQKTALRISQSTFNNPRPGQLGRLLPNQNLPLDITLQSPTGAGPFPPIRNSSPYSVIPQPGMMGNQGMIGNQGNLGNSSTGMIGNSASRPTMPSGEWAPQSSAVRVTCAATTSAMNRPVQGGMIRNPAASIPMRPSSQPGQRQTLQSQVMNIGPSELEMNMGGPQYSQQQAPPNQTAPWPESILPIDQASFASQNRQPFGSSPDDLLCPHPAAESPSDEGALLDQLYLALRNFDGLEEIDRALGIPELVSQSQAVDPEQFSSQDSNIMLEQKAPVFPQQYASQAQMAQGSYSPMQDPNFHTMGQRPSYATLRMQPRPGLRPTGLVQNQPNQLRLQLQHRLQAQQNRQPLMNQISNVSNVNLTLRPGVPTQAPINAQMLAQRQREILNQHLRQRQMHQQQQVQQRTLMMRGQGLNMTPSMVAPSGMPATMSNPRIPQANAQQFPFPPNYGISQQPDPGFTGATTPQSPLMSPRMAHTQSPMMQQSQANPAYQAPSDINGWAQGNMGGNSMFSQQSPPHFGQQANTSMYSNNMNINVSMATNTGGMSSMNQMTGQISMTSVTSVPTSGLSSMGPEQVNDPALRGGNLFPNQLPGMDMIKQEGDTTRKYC
- test.protocol: SRC2 coactivator transcriptional activity inhibitors, confirmation, cell-based, luminescence, HEK293, triplicate (AID 652008);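 further: 0% = DMSO-treated cells and 100% = Gossypol at 36 µM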
- test.parameters: HEK293 GAL4-SRC2 luciferase reporter, at 8.9 µM, stronger effect = higher value
Reported values of inhibition for individual entries

molecule	measurement.target	unit.string	inhibition
CCCC(O)(CCC)C(=O)NN(C(=O)CCl)c1ccccc1	Nuclear receptor coactivator 2 (Homo sapiens) (UniProt Q15596)	%	30.1
O=C(c1ccc(Cl)cc1)C(CN1CCCCC1)c1ccccc1 (stereo not given)	Nuclear receptor coactivator 2 (Homo sapiens) (UniProt Q15596)	%	57.8
COc1ccc(CNc2ncc(-c3ccc(F)cc3)n2C)c2ccccc12	Nuclear receptor coactivator 2 (Homo sapiens) (UniProt Q15596)	%	94.5
CCCCCC(=O)N1CC2(CC(c3cccc(NC(=O)COc4ccc(Cl)cc4)c3)=NO2)C[C@@H]1C(N)=O (stereo not given in full)	Nuclear receptor coactivator 2 (Homo sapiens) (UniProt Q15596)	%	-5.91
O=C(COC(=O)c1ccc[nH]c1=O)Nc1ccc(N2CCCCC2)cc1	Nuclear receptor coactivator 2 (Homo sapiens) (UniProt Q15596)	%	90.5
CCC1CSC(Nc2ccc(C(=O)/C=C/c3ccc(OC)c(OC)c3)cc2)=N1 (stereo not given)	Nuclear receptor coactivator 2 (Homo sapiens) (UniProt Q15596)	%	39.9
O=C(Nc1ccc(Cl)cc1)/C(=C/c1cccc(O)c1)c1nc2ccccc2s1	Nuclear receptor coactivator 2 (Homo sapiens) (UniProt Q15596)	%	80.7
C[C@H]1CN([C@@H](C)CO)S(=O)(=O)c2ccc(Br)cc2O[C@H]1CN(C)Cc1ccccc1F	Nuclear receptor coactivator 2 (Homo sapiens) (UniProt Q15596)	%	16.8
CCC(=O)NC(c1ccc(C)cc1)c1ccc2cccnc2c1O (stereo not given)	Nuclear receptor coactivator 2 (Homo sapiens) (UniProt Q15596)	%	24.4
C=C(C)C(=O)OC1(C(F)(F)F)Oc2cc(C)ccc2NC1=O (stereo not given)	Nuclear receptor coactivator 2 (Homo sapiens) (UniProt Q15596)	%	17.5
